system: Sts-1HP W494F (Homo sapiens, UniProt Q8TF42, W505F)
Sequence (Q8TF42 384-647 W505F): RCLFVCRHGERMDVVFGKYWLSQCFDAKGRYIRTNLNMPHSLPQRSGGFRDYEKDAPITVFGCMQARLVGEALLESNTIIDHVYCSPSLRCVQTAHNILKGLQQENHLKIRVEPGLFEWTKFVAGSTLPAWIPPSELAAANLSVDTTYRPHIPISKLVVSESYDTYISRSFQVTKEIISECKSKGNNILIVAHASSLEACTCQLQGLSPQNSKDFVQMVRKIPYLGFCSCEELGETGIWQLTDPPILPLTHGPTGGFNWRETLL
experiment.description: pNPP inhibition analysis of Sts-1HP mutant
measured.parameter: Ki (µM)

1. Nc1c(/N=N/c2ccc(-c3ccc(/N=N/c4cc(S(=O)(=O)O)c5ccccc5c4N)cc3)cc2)cc(S(=O)(=O)O)c2ccccc12
2. C[C@H]1c2cccc(O)c2C(=O)C2=C(O)[C@]3(O)C(=O)C(C(N)=O)=C(O)[C@@H](N(C)C)[C@@H]3[C@@H](O)[C@@H]21
Challenge: // select label with min value of measured Ki from [ 1 , 2 ] Refer to your chosen item by its label in the answer.
Response given: 1

---

Record: IC50 reported on Sts-1HP (Homo sapiens, UniProt Q8TF42).
Sequence (Q8TF42 384-647 limits assumed): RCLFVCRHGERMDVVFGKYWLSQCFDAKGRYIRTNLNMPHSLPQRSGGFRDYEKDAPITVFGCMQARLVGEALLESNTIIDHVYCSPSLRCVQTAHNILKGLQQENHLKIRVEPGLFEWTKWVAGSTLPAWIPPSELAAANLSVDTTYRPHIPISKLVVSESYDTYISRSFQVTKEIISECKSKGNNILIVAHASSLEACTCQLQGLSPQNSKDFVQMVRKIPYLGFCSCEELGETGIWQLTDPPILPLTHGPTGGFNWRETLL
measured.parameter: IC50 (µM)

>  <compound.smiles>
CN(C)[C@@H]1C(O)=C(C(N)=O)C(=O)[C@@]2(O)C(O)=C3C(=O)c4c(O)ccc(Cl)c4[C@@H](O)[C@H]3C[C@@H]12

>  <IC50 (µM)>
4.7

$$$$

I. C[C@H]1c2cccc(O)c2C(=O)C2=C(O)[C@]3(O)C(=O)C(C(N)=O)=C(O)[C@@H](N(C)C)[C@@H]3[C@@H](O)[C@@H]21
II. Nc1c(/N=N/c2ccc(-c3ccc(/N=N/c4cc(S(=O)(=O)O)c5ccccc5c4N)cc3)cc2)cc(S(=O)(=O)O)c2ccccc12
III. O=C1C(=NNc2ccc(S(=O)(=O)O)cc2)C(c2ccc([N+](=O)[O-])cc2)=NN1c1ccccc1
Challenge: Give the ascending ranking of the items by reported IC50. # the answer lists labels in the order requested
Response given: II, I, III
(II: 0.92 µM, I: 4.1 µM, III: 17.6 µM)

---

system: Sts-1HP (Homo sapiens)
experiment.description: OMFP fluorescence phosphatase assay, 1,536-well HTS
Type: biochemical
protocol.conditions: LOPAC pilot screen, 5.8 μM nominal concentration, triplicate, OMFP substrate
measured.parameter: Averaged Max. Response (%)

>  <compound.smiles>
O=c1cc(O)cc(/C=C/c2ccc(O)c(O)c2)o1

>  <reported.result>
44.44

$$$$
>  <compound.smiles>
C[C@](N)(Cc1ccc(O)c(O)c1)C(=O)O

>  <reported.result>
57.45

$$$$
>  <compound.smiles>
O=c1c(O)c(-c2ccc(O)cc2O)oc2cc(O)cc(O)c12

>  <reported.result>
44.94

$$$$
>  <compound.smiles>
C[C@H]1c2cccc(O)c2C(=O)C2=C(O)[C@]3(O)C(=O)C(C(N)=O)=C(O)[C@@H](N(C)C)[C@@H]3[C@@H](O)[C@@H]21

>  <reported.result>
45.03

$$$$
>  <compound.smiles>
Nc1c(S(=O)(=O)O)cc(Nc2ccc(Nc3nc(Cl)nc(Nc4cccc(S(=O)(=O)O)c4)n3)c(S(=O)(=O)O)c2)c2c1C(=O)c1ccccc1C2=O

>  <reported.result>
58.99

$$$$
>  <compound.smiles>
CN(N=O)c1ccc(O)c(O)c1

>  <reported.result>
46.07

$$$$

---

Record: pIC50 reported on Sts-1HP (Homo sapiens, UniProt Q8TF42).
pIC50: −log10 of the molar value.
measured.parameter: pIC50

>  <compound.smiles>
C=C1c2cccc(O)c2C(=O)C2=C(O)[C@]3(O)C(=O)C(C(N)=O)=C(O)[C@@H](N(C)C)[C@@H]3[C@@H](O)[C@H]12

>  <reported.result>
6.17

$$$$
>  <compound.smiles>
CN(C)[C@@H]1C(O)=C(C(N)=O)C(=O)[C@@]2(O)C(O)=C3C(=O)c4c(O)cccc4[C@@](C)(O)[C@H]3C[C@@H]12

>  <reported.result>
5.72

$$$$

P. COc1cc(-c2ccc(/N=N/c3ccc4c(S(=O)(=O)O)cc(S(=O)(=O)O)c(N)c4c3O)c(OC)c2)ccc1/N=N/c1ccc2c(S(=O)(=O)O)cc(S(=O)(=O)O)c(N)c2c1O
Q. C=C1c2c(Cl)ccc(O)c2C(=O)C2=C(O)[C@]3(O)C(=O)C(C(N)=O)=C(O)[C@@H](N(C)C)[C@@H]3[C@@H](O)[C@H]12
R. Cc1cc(-c2ccc(/N=N/c3ccc4c(S(=O)(=O)O)cc(S(=O)(=O)O)c(N)c4c3O)c(C)c2)ccc1/N=N/c1ccc2c(S(=O)(=O)O)cc(S(=O)(=O)O)c(N)c2c1O
Challenge: Give the ascending ranking of the items by reported pIC50. # the answer lists labels in the order requested
Response given: R, Q, P
